Entry source: patent US8937155B2

Assay: in vitro
Conditions: Escherichia coli, pH 7.4
Ends that are not written are not given here.
Parameter Measured: half-life at 150 μg/mL (min)
Write the value in min as a bare number.

Asked: Return value of half-life at 150 μg/mL for input VDKPPYLPRPRPPRRIYNR-NH2 [SEQ ID NO. 1, VDKPPYLPRPRPPRRIYNR-NH2, reference compound] , no commentary.
Given back: 60

* * *

Experiment: in vitro
Conditions: mouse, pure (full) pooled mouse serum
Ends that are not written are not given here.
Parameter Measured: half-life at 75 μg/mL (min)
A number alone suffices; assume min.

Asked: Could you please provide reported half-life at 75 μg/mL for VDKPPYLPRPRPPRRIYNR-NH2 [SEQ ID NO. 1, VDKPPYLPRPRPPRRIYNR-NH2, reference compound] ? Thanks!
Given back: 30
